target: UniProt P50406; experiment: Displacement of [3H]LSD from human 5-HT6R expressed in HEK293 cell membranes after 1 hr by microbeta counting method
Sequence (P50406 whole entry): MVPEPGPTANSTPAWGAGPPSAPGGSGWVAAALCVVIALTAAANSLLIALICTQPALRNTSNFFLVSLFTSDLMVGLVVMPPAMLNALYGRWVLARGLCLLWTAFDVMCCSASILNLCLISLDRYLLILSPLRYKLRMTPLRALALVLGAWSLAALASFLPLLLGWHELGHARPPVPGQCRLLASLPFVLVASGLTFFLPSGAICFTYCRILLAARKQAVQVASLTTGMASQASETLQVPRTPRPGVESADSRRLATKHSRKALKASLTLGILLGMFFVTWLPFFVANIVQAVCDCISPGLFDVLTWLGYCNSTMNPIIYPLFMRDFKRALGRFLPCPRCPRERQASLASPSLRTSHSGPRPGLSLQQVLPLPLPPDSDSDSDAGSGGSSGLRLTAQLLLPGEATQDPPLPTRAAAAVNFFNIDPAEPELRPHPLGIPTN
API: label(entry) gives met if the entry's Ki is strictly smaller than 300 nM; on equality or larger values it gives not met.

# SUBSTANCE_SMILES, GROUP_LABEL
data = [
    ("O=S(=O)(c1cccc(Br)c1)n1cc(C2=CCNCC2)c2ccc3ncccc3c21", "met"),
    ("O=S(=O)(c1cccc(Cl)c1)n1cc(C2=CCNCC2)c2ccc3ncccc3c21", "not met"),
    ("O=S(=O)(c1cccc(Br)c1)n1cc(C2=CCNCC2)c2ccc3cccnc3c21", "met"),
    ("O=S(=O)(c1ccccc1)n1cc(C2=CCNCC2)c2ccc3ncccc3c21", "not met"),
    ("O=S(=O)(c1cccc(Cl)c1)n1cc(C2=CCNCC2)c2ccc3cccnc3c21", "met"),
    ("O=S(=O)(c1cccc(F)c1)n1cc(C2=CCNCC2)c2ccc3cccnc3c21", "met"),
    ("O=S(=O)(c1ccccc1)n1cc(C2=CCNCC2)c2ccc3cccnc3c21", "met"),
    ("Clc1cccc(Cn2cc(C3=CCNCC3)c3ccc4cccnc4c32)c1", "met"),
    ("O=S(=O)(c1cccc(F)c1)n1cc(C2=CCNCC2)c2ccc3ncccc3c21", "not met"),
]
